Sourced from paper PMC6133080

Type: in vivo, human
Details: human, plasma, oral
quantity-measured: half-life

Entry under test: COC(=O)c1ccc2c(c1)NC(=O)/C2=C(\Nc1ccc(N(C)C(=O)CN2CCN(C)CC2)cc1)c1ccccc1 [Nintedanib] . Its half-life was 1400 min
